Just for reference, patent US7541466B2 is where these values come from.

# Study system: ΔF508 CFTR (Homo sapiens, UniProt P13569, DEL508-508)
# Construct: expressed in transfected cells
# Sequence (P13569 with tags, fused parts or gaps DEL508-508): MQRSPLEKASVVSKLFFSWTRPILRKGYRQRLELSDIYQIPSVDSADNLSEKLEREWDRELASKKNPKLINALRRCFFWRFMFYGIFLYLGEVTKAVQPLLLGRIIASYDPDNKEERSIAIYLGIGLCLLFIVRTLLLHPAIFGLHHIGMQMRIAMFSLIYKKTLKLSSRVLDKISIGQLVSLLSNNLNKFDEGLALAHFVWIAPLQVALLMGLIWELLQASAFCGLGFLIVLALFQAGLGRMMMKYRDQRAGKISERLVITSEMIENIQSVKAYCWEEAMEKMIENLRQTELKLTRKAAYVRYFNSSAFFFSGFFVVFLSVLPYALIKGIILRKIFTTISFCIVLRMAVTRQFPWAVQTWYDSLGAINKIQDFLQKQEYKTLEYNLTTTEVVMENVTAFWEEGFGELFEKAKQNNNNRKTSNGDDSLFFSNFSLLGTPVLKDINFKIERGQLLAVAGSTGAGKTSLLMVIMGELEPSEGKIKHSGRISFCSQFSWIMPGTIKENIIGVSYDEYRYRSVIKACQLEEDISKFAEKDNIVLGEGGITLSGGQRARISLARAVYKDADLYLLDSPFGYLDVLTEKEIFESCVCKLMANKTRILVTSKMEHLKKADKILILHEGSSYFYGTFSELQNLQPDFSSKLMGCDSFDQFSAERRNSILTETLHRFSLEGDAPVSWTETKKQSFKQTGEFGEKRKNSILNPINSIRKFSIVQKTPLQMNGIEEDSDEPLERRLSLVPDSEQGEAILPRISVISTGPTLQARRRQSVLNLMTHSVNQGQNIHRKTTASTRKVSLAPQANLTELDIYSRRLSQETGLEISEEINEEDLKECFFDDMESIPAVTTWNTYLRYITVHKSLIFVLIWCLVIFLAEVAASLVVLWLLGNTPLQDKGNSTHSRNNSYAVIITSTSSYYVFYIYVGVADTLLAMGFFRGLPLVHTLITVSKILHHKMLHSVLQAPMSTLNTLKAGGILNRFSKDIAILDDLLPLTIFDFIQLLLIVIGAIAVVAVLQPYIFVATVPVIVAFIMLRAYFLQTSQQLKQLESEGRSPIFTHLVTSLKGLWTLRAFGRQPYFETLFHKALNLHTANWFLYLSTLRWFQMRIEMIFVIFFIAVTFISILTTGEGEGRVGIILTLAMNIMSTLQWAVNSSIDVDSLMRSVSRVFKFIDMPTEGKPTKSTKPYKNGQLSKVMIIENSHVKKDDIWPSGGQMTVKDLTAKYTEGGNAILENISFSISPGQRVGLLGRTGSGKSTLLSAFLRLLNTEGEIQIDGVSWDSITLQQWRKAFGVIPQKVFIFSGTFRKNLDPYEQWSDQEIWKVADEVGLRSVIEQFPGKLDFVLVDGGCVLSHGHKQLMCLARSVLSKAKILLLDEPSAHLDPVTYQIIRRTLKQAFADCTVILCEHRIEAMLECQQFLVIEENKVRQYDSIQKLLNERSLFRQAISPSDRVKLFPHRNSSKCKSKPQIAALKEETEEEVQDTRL
# Assay method text: MQAE chloride transport assay in C127 cells expressing ΔF508 CFTR
# Assay type: cell-based, murine
# Assay conditions: C127, plateau level in activity at high compound concentration, as a percentage of the low temperature response; read-out: % of Maximal Response
Kindly state Emax for each of the entries shown.
Only the number, expressed in %, is required.

Please indicate Emax recorded for CCCCCc1ccc(NC(=O)C2Cc3ccccc3CN2C(=O)c2cccc(Oc3ccccc3)c2)cc1 (racemic)
74

Return reported Emax. Input molecule: CCCCCc1ccc(NC(=O)C2Cc3ccccc3CN2C(=O)c2cccc(OC(C)CC)c2)cc1 (stereo not shown)
84

Let me know recorded Emax for "CCCCCc1ccc(NC(=O)[C@@H]2Cc3ccccc3CN2C(=O)c2cccc(Oc3ccc(OC)cc3)c2)cc1" , thanks.
71

In one line, give reported Emax of the entry "CCCCCc1ccc(NC(=O)[C@@H]2Cc3ccccc3CN2C(=O)c2ccc(OC)c(OCCN3CCOCC3)c2)cc1" .
63

----------
# Study system: ΔF508 CFTR (Homo sapiens, UniProt P13569, DEL508-508)
# Construct: expressed in transfected cells
# Assay method text: MQAE chloride transport assay in C127 cells expressing ΔF508 CFTR
# Type: cell-based, murine
# Assay conditions: C127, plateau level in activity at high compound concentration, as a percentage of the low temperature response; read-out: % of Maximal Response
For each of the compounds below, state its Emax.
Write down the numeric answer in % and omit the unit.

Determine its reported Emax: "CCCCCc1ccc(NC(=O)[C@@H]2Cc3ccccc3CN2C(=O)c2ccc(OC)c(OCc3ccccc3)c2)cc1"
88

Indicate the recorded Emax value for this compound: O=C(Nc1ccc(Cl)cc1)C1Cc2ccc(O)cc2CN1C(=O)c1cccc(Oc2ccccc2)c1 (racemic)
28

Tell me measured Emax for O=C(Nc1ccc(I)cc1)C1Cc2ccccc2CN1C(=O)c1cccc(Oc2ccccc2)c1 (racemic) please.
60

Query Emax for "CCCCCc1ccc(NC(=O)[C@@H]2Cc3ccccc3CN2C(=O)c2cc(OCCN3CCOCC3)cc(OC(C)C)c2)cc1"
69

Quote Emax reported for CCC(C)c1ccc(NC(=O)C2Cc3ccccc3CN2C(=O)c2cccc(Oc3ccccc3)c2)cc1 (racemic) please.
30

Return Emax (reported value) for this compound: O=C(Nc1cccnc1)C1Cc2ccccc2CN1C(=O)c1cccc(Oc2ccccc2)c1 (racemic)
55

Assign Emax to the following record: CC(C)c1ccc(NC(=O)C2Cc3ccccc3CN2C(=O)c2cccc(Oc3ccccc3)c2)cc1 (racemic)
40

Retrieve Emax measured for CCCCCc1ccc(NC(=O)C2Cc3c(C)cccc3CN2C(=O)c2cccc(Oc3ccccc3)c2)cc1 (racemic) and print it.
28

Item CCCc1ccc(NC(=O)C2Cc3ccccc3CN2C(=O)c2cccc(Oc3ccccc3)c2)cc1 (racemic) : provide Emax
82

Write down Emax measured for item COc1ccccc1Oc1cccc(C(=O)N2Cc3ccccc3CC2C(=O)Nc2ccc(Cl)cc2)c1 (racemic)
52

Give the reported value of Emax for this record: CC(=O)N(C)c1ccc(NC(=O)C2Cc3ccccc3CN2C(=O)c2cccc(Oc3ccccc3)c2)cc1 (racemic)
74

Specify measured Emax for Cc1ccc(NC(=O)C2Cc3ccccc3CN2C(=O)c2cccc(Oc3ccccc3)c2)cc1 (racemic) .
70

Indicate the recorded Emax value for this compound: O=C(Nc1ccc(C2CCCCC2)cc1)C1Cc2ccccc2CN1C(=O)c1cccc(Oc2ccccc2)c1 (racemic)
36

Output measured Emax for this item: "CCCCCc1ccc(NC(=O)[C@@H]2Cc3ccccc3CN2C(=O)c2ccc3c(c2)OCCO3)cc1"
56

----------
# Study system: ΔF508 CFTR (Homo sapiens, UniProt P13569, DEL508-508)
# Assay method text: MQAE chloride transport assay in C127 cells expressing ΔF508 CFTR
# Assay conditions: chloride transport activity, C127 ΔF508 CFTR cells, MQAE
Answer each item with its documented pEC50.
Please keep in mind that pEC50 is minus log10 of the molar concentration; only the number is needed.

Could you please provide reported pEC50 for CCCCCCN(C(C)=O)c1ccc(NC(=O)C2Cc3ccccc3CN2C(=O)c2cccc(Oc3ccccc3)c2)cc1 (racemic) [Compound 90] ? Thanks!
7.23

Determine from records and report pEC50 for CCOc1cccc(NC(=O)C2Cc3ccccc3CN2C(=O)c2cccc(Oc3ccccc3)c2)c1 (racemic) [Compound 83]
6.55

Dear colleague, please send me the reported pEC50 for COc1ccc(NC(=O)[C@@H]2Cc3ccccc3CN2C(=O)c2cc(OC3CCCCC3)ccn2)cn1 [Compound 110] when you can.
6.40

Consider the compound CCCCCc1ccc(NC(=O)[C@@H]2Cc3ccccc3CN2C(=O)c2cccc(OC(C)C(C)C)c2)cc1 (stereo partly shown) [Compound 142] . State its measured pEC50.
8.10

Respond only with pEC50 recorded for O=C(Nc1ccc(Cl)cc1)C1Cc2ccccc2CN1C(=O)c1cccc(OCc2ccccc2)c1 (single isomer, unassigned; (+)) [Compound 14]
6.66

Check the records and state pEC50 for CCCCCc1ccc(NC(=O)[C@@H]2Cc3ccccc3CN2C(=O)c2cc(OC)c(OC)c(OC)c2)cc1 [Compound 138]
7.03

Please report the measured pEC50 for Cc1ccc(NC(=O)C2Cc3ccccc3CN2C(=O)c2cccc(Oc3ccccc3)c2)cc1 (racemic) [Compound 67]
6.57

----------
# Study system: ΔF508 CFTR (Homo sapiens, UniProt P13569, DEL508-508)
# Assay method text: MQAE chloride transport assay in C127 cells expressing ΔF508 CFTR
# Assay conditions: chloride transport activity, C127 ΔF508 CFTR cells, MQAE
Quantity measured: log10 EC50 (log10 of the value in µM)
Note: values are log10 of EC50 expressed in µM.

Enter log10 EC50 (test system ΔF508 CFTR (Homo sapiens, UniProt P13569, DEL508-508)) for CC(=O)N(C)c1ccc(NC(=O)C2Cc3ccccc3CN2C(=O)c2cccc(Oc3ccccc3)c2)cc1 (racemic) [Compound 85]
-1.02

Send back ΔF508 CFTR (Homo sapiens, UniProt P13569, DEL508-508) log10 EC50 of CCCCCc1ccc(NC(=O)[C@@H]2Cc3ccccc3CN2C(=O)c2cccc(OCc3ccccc3)c2)cc1 [Compound 114] only.
-1.23

Specify the recorded log10 EC50 for O=C(Nc1ccc(Cl)cc1)C1Cc2ccc(O)cc2CN1C(=O)c1cccc(Oc2ccccc2)c1 (racemic) [Compound 20] , system: ΔF508 CFTR (Homo sapiens, UniProt P13569, DEL508-508).
0.09

Recall the reported log10 EC50 of CCCc1ccc(NC(=O)C2Cc3ccccc3CN2C(=O)c2cccc(Oc3ccccc3)c2)cc1 (racemic) [Compound 75] on ΔF508 CFTR (Homo sapiens, UniProt P13569, DEL508-508) and write it down.
-0.57

Enter log10 EC50 (test system ΔF508 CFTR (Homo sapiens, UniProt P13569, DEL508-508)) for CCCCCc1ccc(NC(=O)[C@@H]2Cc3ccccc3CN2C(=O)c2cccc(Oc3ccc(OC)cc3)c2)cc1 [Compound 112]
-1.41

Give the observed log10 EC50 of CCCCCc1ccc(NC(=O)[C@@H]2Cc3ccccc3CN2C(=O)c2cccc(OC(CC)CC)c2)cc1 [Compound 141] for ΔF508 CFTR (Homo sapiens, UniProt P13569, DEL508-508).
-1.92

Give log10 EC50; test system ΔF508 CFTR (Homo sapiens, UniProt P13569, DEL508-508); molecule CCCCCc1ccc(NC(=O)[C@@H]2Cc3ccccc3CN2C(=O)c2ccc(OC)c(OCCN3CCOCC3)c2)cc1 [Compound 128]
-0.96

Param request: log10 EC50 | system ΔF508 CFTR (Homo sapiens, UniProt P13569, DEL508-508) | item COc1ccc(C(=O)N2Cc3ccccc3CC2C(=O)Nc2ccc(Cl)nc2)cc1Oc1ccccc1 (racemic) [Compound 108]
-1.00

Enter log10 EC50 (test system ΔF508 CFTR (Homo sapiens, UniProt P13569, DEL508-508)) for CC1c2ccccc2CN(C(=O)c2cccc(Oc3ccccc3)c2)C1C(=O)Nc1ccc(Cl)cc1 (single isomer, unassigned) [Compound 18]
-1.06

Send back ΔF508 CFTR (Homo sapiens, UniProt P13569, DEL508-508) log10 EC50 of CCCCCc1ccc(NC(=O)[C@@H]2Cc3ccccc3CN2C(=O)c2cccc(CN3CCOCC3)c2)cc1 [Compound 123] only.
-1.02

Provide the reported log10 EC50 (system: ΔF508 CFTR (Homo sapiens, UniProt P13569, DEL508-508)) for CC(C)(C)c1ccc(Oc2cccc(C(=O)N3Cc4ccccc4CC3C(=O)Nc3ccc(Cl)cc3)c2)cc1 (racemic) [Compound 8]
-0.55

Jot down log10 EC50 (ΔF508 CFTR (Homo sapiens, UniProt P13569, DEL508-508)) of CCCCCc1ccc(NC(=O)C2Cc3c(C)cccc3CN2C(=O)c2cccc(Oc3ccccc3)c2)cc1 (racemic) [Compound 21] .
-0.77

Please report the measured log10 EC50 for CC1c2ccccc2CN(C(=O)c2cccc(Oc3ccccc3)c2)C1C(=O)Nc1ccc(Cl)cc1 (single isomer, unassigned) [Compound 19] tested on ΔF508 CFTR (Homo sapiens, UniProt P13569, DEL508-508).
-0.82

Lab note: ΔF508 CFTR (Homo sapiens, UniProt P13569, DEL508-508) assay, enter log10 EC50 for CCCCCc1ccc(NC(=O)C2Cc3ccccc3CN2C(=O)c2cccc(OCc3ccccc3)c2)cc1 (racemic) [Compound 113] here
-1.16
